pIC50, UniProtKB Q72547: measured values
Just so you know, pIC50 here is -log10 of the concentration in molar units; reply with that number alone.

Chem Smiles	Value Kind	Recorded Result
CCc1c(Sc2cc(C)cc(C)c2)cc(O)nc1C	pIC50	6.40
CCc1c(C)nc(O)c(N)c1Sc1cc(C)cc(C)c1	pIC50	7.82
Cc1cc(C)cc(Sc2c(C)cnc(O)c2N)c1	pIC50	7.00
CCc1c(C)[nH]c(=O)c([N+](=O)[O-])c1Sc1cc(C)cc(C)c1	pIC50	7.52
CCOC(=O)c1c(Sc2cc(C)cc(C)c2)c(CC)c(C)[nH]c1=O	pIC50	6.22

Q: Which pIC50 is listed for `Cc1c(Sc2ccccc2)n(COCc2ccccc2)c(=O)[nH]c1=O` ?
Result: 6.40

----------
Tested on: Human immunodeficiency virus 1
Assay: Inhibition of wild type HIV-1-IIIB strain replication in CEM-SS cells
Assay type: functional, organism-based
Conditions: Human immunodeficiency virus 1, CEM-SS
pIC50: −log10 of the molar value.
Label scheme for pIC50: 1 = under 5, 2 = from 5 up to 7, 3 = 7 and over

Here's what some known entries look like.
Chem Smiles	Class Assignment
Cc1cc(C)cc(Sc2c(C)cnc(O)c2NC=O)c1	2
Cc1cnc(O)c([N+](=O)[O-])c1Sc1ccccn1	1
Cc1cnc(O)c([N+](=O)[O-])c1Sc1nc2ccccc2[nH]1	1
Cc1cnc(O)c([N+](=O)[O-])c1Sc1nc2ccccc2s1	1
Cc1cc(C)cc(Sc2c(N)c(O)nc3ccccc23)c1	2

Q: Consider `Cc1cc(C)cc(Sc2c([N+](=O)[O-])c(O)nc3ccccc23)c1` . To which pIC50 class does it belong?
Result: 2

Q: Entry to check: `CCC(=O)Nc1c(O)ncc(C)c1Sc1cc(C)cc(C)c1`
Result: 1

Q: Entry to check: `Cc1cnc(O)c([N+](=O)[O-])c1SC1=NCCS1`
Result: 1

Q: Entry to check: `Cc1cnc(O)c([N+](=O)[O-])c1Sc1ccccc1`
Result: 1

Q: Entry to check: `Cc1cc(O)nc(Sc2c(C)cnc(O)c2[N+](=O)[O-])n1`
Result: 1

Q: Entry to check: `CCc1c(C)nc(O)c(N)c1Sc1cc(C)cc(C)c1`
Result: 3

Q: Entry to check: `Cc1cc(C)cc(Sc2c(C)cnc(O)c2NC(=O)Cc2ccccc2)c1`
Result: 1

Q: Entry to check: `Cc1cc(C)nc(Sc2c(C)cnc(O)c2[N+](=O)[O-])n1`
Result: 1

Q: Entry to check: `Cc1cc(C)cc(Nc2c(C)cnc(O)c2[N+](=O)[O-])c1`
Result: 1

Q: Entry to check: `Cc1cnc(O)c([N+](=O)[O-])c1Sc1nccn1C`
Result: 1

Q: Entry to check: `CCc1c(C)nc(O)c(NC(C)=O)c1Sc1cc(C)cc(C)c1`
Result: 3

Q: Entry to check: `CCc1cnc(O)c(N)c1Sc1cc(C)cc(C)c1`
Result: 3

Q: Entry to check: `Cc1cc(C)cc(Sc2c(C)cnc(O)c2N)c1`
Result: 3

Q: Entry to check: `CCOC(=O)c1c(O)nc(C)c(CC)c1Sc1cc(C)cc(C)c1`
Result: 3

Q: Entry to check: `CCc1c(Sc2cc(C)cc(C)c2)cc(O)nc1C`
Result: 2
